Target: B2 bradykinin receptor (Homo sapiens)
Sequence (P30411 whole entry): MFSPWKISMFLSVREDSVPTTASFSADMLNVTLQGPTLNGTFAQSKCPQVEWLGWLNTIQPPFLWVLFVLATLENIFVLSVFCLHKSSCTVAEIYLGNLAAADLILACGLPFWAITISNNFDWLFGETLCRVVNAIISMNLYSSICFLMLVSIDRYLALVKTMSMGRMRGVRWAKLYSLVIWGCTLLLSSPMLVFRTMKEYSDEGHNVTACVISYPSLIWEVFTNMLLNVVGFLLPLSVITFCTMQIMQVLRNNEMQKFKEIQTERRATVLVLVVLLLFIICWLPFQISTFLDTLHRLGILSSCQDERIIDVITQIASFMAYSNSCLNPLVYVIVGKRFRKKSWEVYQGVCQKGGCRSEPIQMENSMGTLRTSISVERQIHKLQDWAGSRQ
Assay: Concentration required to inhibit specific binding of [3H]BK at 1.2 nM to A-431 cells (human epidermoid carcinoma) which express Bradykinin receptor B2 by 50%.
readout.name: IC50 (nM)
Write down the numeric answer in nM and omit the unit.

// map CCNC(=O)NCC(=O)N(C)c1ccc(Cl)c(COc2cccn3c(Br)c(C)nc23)c1Cl to recorded IC50 (system: B2 bradykinin receptor (Homo sapiens))
3000

// map CC(=O)Nc1ccc(/C=C/C(=O)NCC(=O)N(C)c2ccc(Cl)c(COc3cccn4c(Br)c(C)nc34)c2Cl)cc1.Cl to recorded IC50 (system: B2 bradykinin receptor (Homo sapiens))
1.6

// map COCC(=O)Nc1cccc(NC(=O)NCC(=O)N(C)c2ccc(Cl)c(COc3cccn4c(Br)c(C)nc34)c2Cl)c1 to recorded IC50 (system: B2 bradykinin receptor (Homo sapiens))
75

// map Cc1nc2c(OCc3c(Cl)ccc(N(C)C(=O)CNC(=O)Nc4cccc(C(=O)N(C)C)c4)c3Cl)cccn2c1Br.Cl to recorded IC50 (system: B2 bradykinin receptor (Homo sapiens))
20

###

Exercise: state measured IC50 for each of the molecules provided.
Target: UniProt:O70526
Sequence (O70526 whole entry): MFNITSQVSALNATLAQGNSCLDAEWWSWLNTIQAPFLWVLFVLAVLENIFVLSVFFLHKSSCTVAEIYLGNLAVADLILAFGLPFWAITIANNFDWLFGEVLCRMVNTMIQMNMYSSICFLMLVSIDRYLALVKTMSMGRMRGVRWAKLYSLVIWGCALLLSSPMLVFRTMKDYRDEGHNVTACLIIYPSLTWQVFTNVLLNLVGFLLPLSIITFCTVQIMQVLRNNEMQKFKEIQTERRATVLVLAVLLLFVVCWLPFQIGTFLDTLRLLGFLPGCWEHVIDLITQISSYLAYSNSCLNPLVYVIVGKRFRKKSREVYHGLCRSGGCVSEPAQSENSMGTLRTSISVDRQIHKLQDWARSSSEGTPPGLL
Assay: Concentration required to inhibit specific binding of [3H]BK at 0.06 nM to Bradykinin receptor B2 in guinea pig ileum membrane preparations by 50%.
Write down the numeric answer in nM and omit the unit.

Suppose we examine the molecule CCCCCC(=O)NCC(=O)N(C)c1ccc(Cl)c(COc2cccn3c(Br)c(C)nc23)c1Cl ; what IC50 value has been reported?
5.6

Suppose we examine the molecule CC(=O)N(C)c1ccc(/C=C/C(=O)NCC(=O)N(C)c2ccc(Cl)c(COc3cccn4c(Br)c(C)nc34)c2Cl)cc1.Cl ; what IC50 value has been reported?
1.1

Suppose we examine the molecule Cc1nc2c(OCc3c(Cl)ccc(N(C)C(=O)CNC(=O)/C=C/c4ccc(N5CCCC5=O)cc4)c3Cl)cccn2c1Br.Cl ; what IC50 value has been reported?
0.59
